The entries below are paired with their reported T/C.
System: L1210 leukemia ip in BDF1 mice, survival T/C
Test: NCI In Vivo Anticancer Drug Screen. Data for tumor model L1210 Leukemia (intraperitoneal) in B6D2F1 (BDF1) mice
Details: endpoint: mean survival time; dose: 100.0 mg/kg/injection; schedule: Q04DX002 (ip); vehicle: saline; higher = longer survival
Toxic doses and inconclusive results are not listed.

Bench note: what T/C did "N#CCCC(=O)c1cccnc1" show?
108 % of control

Request the reported T/C associated with [NH-]C(CCC(N)=O)C(=O)O.[NH-]C(CCC(N)=O)C(=O)O.[Pd+2] (stereo not given)
102 % of control

Could you share which T/C value was measured for "CC(=O)N(C)c1ccc(NC(=O)Nc2c(C)cccc2C)cc1" ?
96 % of control

Given the molecule "CCC#CC(=O)OCCCCC" , what is its reported T/C?
105 % of control

What value of T/C has been reported for the following molecule? OC(c1cccc2ccccc12)c1c2ccccc2cc2ccccc12 (stereo not given)
93 % of control

Entry C=CCOC(=O)C(C)(O)C(Cl)c1ccccc1 (stereo not given) : reported T/C = ?
103 % of control

Record request: T/C value, item COC12OCC(O)C1OC(=O)C2O (stereo not given)
91 % of control

Query (molecule): C=CCC(O)c1ccccc1 (stereo not given) ; field requested: T/C
103 % of control

Tell me the measured T/C of "CCOCc1c(COc2ccc(Cl)cc2)n(C)c2ccccc12" , please.
98 % of control

Which measured T/C value corresponds to "N#Cc1ccccc1C(N)=O" ?
90 % of control

What does the data say about its T/C? Entry: "Cc1ncc(CO)c(COCCC(C)C)c1O"
95 % of control

Given "CC(=O)OCCOc1cccc(C)c1" , state its recorded T/C.
114 % of control

Please report the recorded T/C for "COP(=O)(OC)OC=C(Cl)Cl" .
98 % of control

Given the molecule "CC(=O)OCCOc1ccc(Cl)cc1" , what is its reported T/C?
107 % of control

Can you look up the measured T/C of CC1CCCCN1C(=O)CCCCl (stereo not given) for me?
111 % of control
